Data origin, for the record: ChEMBL document CHEMBL4513216

# procedure_details: Toxicity liver stage against HepG2, at 10uM
# Type: cell-based
# Set-up: test concentration 10 uM, cell line HepG2-A16-CD81EGFP
# run_conditions: human, HepG2-A16-CD81EGFP cells; read-out: INHIBITION
Give measured cytotoxicity at 10 µM for each item. Keep answers brief.
Numbers only, in %.

Would you please look over these solved cases?
O=C(COc1ccccc1)N1CCC[C@]2(C[C@@H](OCC3CC3)CO2)C1	-1.69
c1cc(-c2nnn3c2COC(CNCc2nccs2)C3)ccn1 (stereo not given)	1.94
COc1cn(CC(=O)N2CCC(c3ccccc3)CC2)c(C)cc1=O	1.11
Cn1cc(NC(=O)CNC(=O)N2CCN(c3cccc(Cl)c3)CC2)cn1	2.93

Shifting focus to the compound that follows.
// returns reported cytotoxicity at 10 µM for input Cc1cc(C(=O)N2CCCC(c3noc(C)n3)C2)[nH]n1 (stereo not given)
-6.67
